# Test system: MDA-MB-435
# testDetails: NCI tumour cell line growth inhibition, 48 h
# maps each entry to its TGI

CCc1nc(N)nc(N)c1-c1ccc(Cl)c(Cl)c1 :: > 100 µM
Oc1ccc(Cl)cc1Cc1cc(Cl)cc(Cl)c1O :: 83.2 µM
O=C(O)/C=N\Nc1nc2ccccc2[nH]1 :: > 100 µM
COc1cc(/C=C2\CCC(C)C3C2=NN(C(C)=O)C3c2cc(OC)c(OC)c(OC)c2)cc(OC)c1OC (stereo unspecified) :: > 100 µM
CN1C(=O)N/C(=C\c2ccc(S(=O)(=O)NN)cc2)C1=O :: > 100 µM

Endpoint output: TGI of CC(C)(Cc1ccccc1)NC1=NCCO1 . Value?
> 100 µM

Value lookup for TGI; key = O=C1NC(=Nc2ccccc2)S/C1=C\c1ccc2ncccc2c1
1.88 µM

Quick one: TGI of C=C(F)C(=O)N1CCN(c2nc(OC[C@@H]3CCCN3C)nc3c2CCN(c2cccc4cccc(Cl)c24)C3)C[C@@H]1CC#N ?
2.22 µM

Given N#CSC#Cc1ccc(C#CSC#N)cc1 , state its recorded TGI.
45.4 µM

Report TGI for CC(C)=C[C@@H]1C[C@H](C)[C@H]2CC[C@H](C)C3=C2[C@](O)(OC3=O)[C@]1(C)O please.
> 100 µM

So what's the measured TGI for this one? COCCOCc1nc(C#N)c(N)o1
> 100 µM

---

# System: CAKI-1 renal
# testDetails: NCI tumour cell line growth inhibition, 48 h
Consider the following molecules and their measured TGI readings.

COc1ccc(N(C)c2ncnc3occ(C)c23)cc1 :: > 100 µM
O=C1N=c2ccccc2=C1c1c(O)[nH]c2ccccc12 :: > 100 µM

Requested read-out: TGI. Entry: O=c1[nH]c(-c2ccc3ccccc3c2)nc2ccccc12
> 100 µM

---

# System: SNB-75 CNS
# testDetails: NCI tumour cell line growth inhibition, 48 h
measuredAttribute: log10 of TGI (log10 of the value in µM)
Values are log10 of TGI in µM.

Below, 5 molecules whose answers are already recorded.
O=C1N=c2ccccc2=C1c1c(O)[nH]c2ccccc12 :: 1.54
Cc1ccc(S(=O)(=O)N/N=C/C(=C/c2ccc(Cl)cc2)CC(/C=N/NS(=O)(=O)c2ccc(C)cc2)=C\c2ccc(Cl)cc2)cc1 :: 1.78
CC(C)(C)[SiH]12(OC(C(F)(F)F)(C(F)(F)F)c3ccccc31)OC(C(F)(F)F)(C(F)(F)F)c1ccccc12 :: 0.86
CCN1CCN(c2ccc(Nc3cc(N(C)C(=O)Nc4c(Cl)c(OC)cc(OC)c4Cl)ncn3)cc2)CC1 :: 1.35
COc1cc(Nc2cn[nH]c2-c2ccc(Cl)cc2)cc(OC)c1OC :: 0.88

Requested field: log10 of TGI. Item: C=C(F)C(=O)N1CCN(c2nc(OC[C@@H]3CCCN3C)nc3c2CCN(c2cccc4cccc(Cl)c24)C3)C[C@@H]1CC#N
0.43

What measured log10 of TGI goes with CNCCCn1cc(C2=C(c3cn(C)c4ccccc34)C(=O)NC2=O)c2ccccc21 ?
0.47

Look at this molecule and give its reported log10 of TGI. O=c1c2ccccc2[se]n1-c1cccnc1
1.64

Give its log10 of TGI value. Item: O=C(Nc1nc2ncn(CCI)c2c(=O)[nH]1)c1ccccc1
1.67

# log10 of TGI lookup, item COc1ccc(N=C2SC(=N/N=c3\sc4ccccc4n3C)SC2=Nc2ccc(OC)cc2)cc1
1.98

Look up log10 of TGI for this molecule: C#Cc1cccc(Nc2ncnc3cc(OC)c(OCCCCCCC(=O)NO)cc23)c1
-0.33

---

# Tested on: DU-145 prostate
# testDetails: NCI tumour cell line growth inhibition, 48 h
Respond with y for TGI values of 5 µM and above, n for values below.

Cc1ccc2c(n1)C(=O)c1[nH]c3ccccc3c1C2=O :: n
CCN(CC)CCOc1ccc(/C=C(\C#N)c2ccc(OCCN(CC)CC)cc2)cc1 :: y
NC(N)=NCCN=C(N)N :: y
O=c1c2ccccc2[se]n1-c1cccnc1 :: y
C=CC(Br)(CBr)CCC(Cl)C(C)C (configuration not stated) :: y
O=S1(=O)OCCOS(=O)(=O)C1F :: y
COc1ccc(N(C)c2ncnc3occ(C)c23)cc1 :: n
CC(=O)OCc1cc(CCC(=O)NCCNc2c3ccccc3nc3ccccc23)cc(COC(C)=O)c1O[Si](C)(C)C(C)(C)C :: y

Does the compound COc1ccc(C(=O)Sc2c(-c3ccccc3)c(=O)n(-c3ccccc3)c(=S)n2-c2ccccc2)cc1 have recorded TGI that is 5 µM or more?
y

Reported TGI at or above 5 µM? C[N+](C)([O-])CCC=C1c2ccccc2CCc2ccccc21
y

---

Documented TGI across a set of molecules
# System: SR leukemia
# testDetails: NCI tumour cell line growth inhibition, 48 h

Worked examples, 4 molecules total:
c1ccc2sc(C3(N4CCCC4)CCCCCC3)cc2c1 :: 44.1 µM
C[C@]12CC[C@H](O)CC1=CC[C@@H]1[C@@H]2CC[C@]2(C)C(=O)[C@@H](N3CCOCC3)C[C@@H]12 :: > 100 µM
CCC(C)(C)/C(CC(O)(C(F)(F)F)C(F)(F)F)=N\O :: > 100 µM
CC(C)c1ccc(Nc2ccc3c(OCCCN4CCN(C)CC4)cccc3n2)cc1 :: 10.7 µM

Consider the molecule shown here: NC(CCCCP(=O)(O)O)C(=O)O (stereo not given) What is its recorded TGI?
> 100 µM

Look at this molecule and give its reported TGI. CC1OC(n2cc(F)c(=O)[nH]c2=O)C=CC1O (stereo not given)
> 100 µM

Give the measured TGI of COc1ccc(C2S/C(=C\c3ccccc3O)C(=O)N2NC(=O)Cc2ccccc2)cc1 (stereo not given) .
> 100 µM

Given the entry O=C1CN=C(C[N+](=O)[O-])c2ccccc21 , report its measured TGI.
> 100 µM

Which value of TGI has been reported for C[C@@H]1C[C@H]2[C@@H]3CCC4=CC(=O)C=C[C@]4(C)[C@@]3(Cl)[C@@H](Cl)C[C@]2(C)[C@@]1(O)C(=O)COP(=O)(O)O in the records?
> 100 µM

Consider the molecule shown here: O=[N+]([O-])c1ccc(C=C2C(Cl)=C(Cl)C(Cl)=C2Cl)cc1 What is its recorded TGI?
7.75 µM

---

# System: SK-OV-3 ovarian
# testDetails: NCI tumour cell line growth inhibition, 48 h
measuredAttribute: TGI (µM)
Response body: numeric value in µM, unit text excluded.

CCN1CCN(c2ccc(Nc3cc(N(C)C(=O)Nc4c(Cl)c(OC)cc(OC)c4Cl)ncn3)cc2)CC1 :: 20.8
COC(=O)C1=C(c2ccc3c(c2)OCO3)O[C@H](c2cc(OC)c(OC)c(OC)c2)[C@H]1COC(C)=O :: 5.94

Consider the molecule shown here: CC/C(=C(/c1ccc(OCCN(C)C)cc1)c1ccc(OC(=O)CCCCC(=O)c2c(C)[nH]c(/C=C3\N=C(c4ccc[nH]4)C=C3OC)c2C)cc1)c1ccccc1 What is its recorded TGI?
27

---

# System: SK-MEL-2 melanoma
# testDetails: NCI tumour cell line growth inhibition, 48 h; in the data active = GI50 below about 0.43 µM; inactive = the rest
Please answer using one outcome listed in active, inactive

See these solved cases before continuing.
C#Cc1cccc(Nc2ncnc3cc(OC)c(OCCCCCCC(=O)NO)cc23)c1 :: active
C/C1=C\CC[C@@]2(C)O[C@@H]2[C@H]2OC(=O)[C@@H](CN(C)C)[C@@H]2CC1 :: inactive
COC(=O)/C=C/c1cc(O)c2oc(-c3ccc(O)c(O)c3)c(C(=O)OC)c2c1 :: inactive

# outcome recorded in this test, key = NC(=NCCCOc1ccc(Cl)cc1)Nc1ccc(C(F)(F)F)cc1
inactive

For this molecule, state the assay outcome: Fc1c[c-]c(-c2ccccn2)c(F)c1.Fc1c[c-]c(-c2ccccn2)c(F)c1.[Cl][Pt+].[Cl][Pt+].c1ccc([PH+](C[PH+](c2ccccc2)c2ccccc2)c2ccccc2)cc1
active

Hi, sorry to bother you, what did the test record for O=C1NC(=Nc2ccccc2)S/C1=C\c1ccc2ncccc2c1 ?
inactive

Hi, sorry to bother you, what did the test record for COCCOc1cc(F)c2c(Nc3ccc(NC(=O)Cn4cc(C(C)C)nn4)cc3)ncnc2c1 ?
inactive

---

# System: TK-10 renal
# testDetails: NCI tumour cell line growth inhibition, 48 h; in the data active means GI50 below about 0.43 µM; inactive means the rest
Entry note: the call must match one of active, inactive

CC(=O)O.CC(=O)O.CC(=O)O.CC(=O)O.CC(=O)O.CC(=O)O.O.[Ti].[Ti] :: inactive
C/C1=C\CC[C@@]2(C)O[C@@H]2[C@H]2OC(=O)[C@@H](CN(C)C)[C@@H]2CC1 :: inactive
C=C(F)C(=O)N1CCN(c2nc(OC[C@@H]3CCCN3C)nc3c2CCN(c2cccc4cccc(Cl)c24)C3)C[C@@H]1CC#N :: inactive
Cc1ccc(Cl)cc1Nc1nc(C(F)(F)F)ccc1C(=O)N1CCN(c2ccc(F)cc2)CC1 :: inactive

Hi team, can someone confirm the assay call for C=CC1CC12C(=O)C1OC2(C)C2C(=O)c3cc4ccccc4cc3C(=O)C12 (centres undefined) ?
inactive

Outcome logged for COc1ccc2c(c1)CCC1C2CC[C@@]2(C)C1CC1=CC(COC(C)=O)C3C(=O)c4ccccc4C(=O)C3C12 (some centres undefined) in this assay:
inactive

Could you please tell me the result logged for C#Cc1cccc(Nc2ncnc3cc(OC)c(OCCCCCCC(=O)NO)cc23)c1 in this assay?
active

Hi, sorry to bother you, what did the test record for O=S(=O)(Nc1cc(F)cc(Cl)c1)c1ccc(-c2cnc(C3CC3)o2)cc1 ?
inactive

Check the results log: what was the call for O=c1n(CC2CO2)c(=O)n(CC2CO2)c(=O)n1CC1CO1 (centres undefined) ?
inactive
